Values compiled from PubChem BioAssay (NCATS).

- assay-method-text: Quantitative High-Throughput drug screen in 47 multiple myeloma cell lines against the NCATS MIPE library collection: Karpas620_DSMZ cell viability assay (AID 1918959); note: nearly all actives have a fitted effect of over 30% in size
- condition-context: Karpas620 myeloma viability, CellTiter-Glo ATP luminescence, 48 h; series mostly up to 45.8 µM
- Text: PI: Beverly A. Mock Ph.D. Laboratory of Cancer Biology and Genetics, Center for Cancer Research, National Cancer Institute, National Institute of Health, Bethesda, Maryland […] 5; Detector; 425V; Luminescence; Viewlux PerkinElmer. […] 1. […] Briefly, the corresponding myeloma cell lines were screened in 1,536-well plates with 500 cells, 5-uL per well for inhibition of cell viability (assessed by measuring ATP levels with CellTiterGlo). […]
Inconclusive results are not listed. Active and inactive are the calls of the source. Calls come from the whole dose curve; as a rule, active = well fitted cell-killing curve with a large enough effect; inconclusive = small, poorly fitted or top-dose-only effect, or effect the other way; inactive = no such curve, though single readings can be large or run the other way.
Outcomes you can answer with include only these: active, inactive

Entry O=C(O)C1=CC(O)C(O)[C@H](O)C1 (stereo partly specified) : call = ?
inactive

Entry C#CCN(C)CC1=Cc2ccccc2Oc2ccccc21 : call = ?
inactive

Entry Cc1ccccc1-n1c(Cn2nc(-c3cccc(O)c3)c3c(N)ncnc32)nc2cccc(C)c2c1=O : call = ?
active

Entry CNc1nc(Nc2ccc(C(=O)N3CCOCC3)cc2OC)ncc1Cl : call = ?
inactive

Entry CCN1C[C@H](C)n2c(c(O)c3c(=O)n(Cc4ccc(F)c(Cl)c4)nc(C(=O)NC)c32)C1=O : call = ?
active

Entry NC(N)=Nc1nc(CSCCC(N)=NS(N)(=O)=O)cs1 : call = ?
inactive

Entry O=C(Nc1cccc(C(F)(F)F)c1)Nc1cc(S(=O)(=O)NC2CC2)ccc1-c1ccsc1 : call = ?
inactive

Entry Cc1ccc2c(c1)c1c(n2CCc2ccc(C)nc2)CCN(C)C1 : call = ?
inactive

Entry Cc1cn([C@@H]2C[C@@H](O)[C@H](CO)O2)c(=O)[nH]c1=O : call = ?
inactive

Entry NCC1CCC(C(=O)O)CC1 (stereo unspecified) : call = ?
inactive

Entry CCCCCCOC(=O)N=C(N)c1ccc(NCc2nc3cc(C(=O)N(CCC(=O)OCC)c4ccccn4)ccc3n2C)cc1 : call = ?
active

Entry N=C1SC(=Cc2ccc(-c3ccc4c(c3)C(=O)NC4=O)o2)C(=O)N1c1ccc(Br)cc1 : call = ?
inactive

Entry CCNC(=O)Nc1ccc(Oc2ncnc(N)c2C=NOC)cc1Cl : call = ?
active

Entry C[C@@H]1[C@H](O)[C@@H](C)C=CC=CC=CC=CC=CC=CC=C[C@H](O[C@@H]2O[C@H](C)[C@H](O)[C@H](N)[C@@H]2O)C[C@@H]2O[C@](O)(C[C@@H](O)C[C@@H](O)[C@H](O)CC[C@@H](O)C[C@@H](O)CC(=O)O[C@H]1C)C[C@H](O)[C@@H]2C(=O)O : call = ?
inactive

Entry CCC(C)SSc1ncc[nH]1 (stereo unspecified) : call = ?
active

Entry C=C[C@@H]1CN2CCC1C[C@@H]2C(O)c1ccnc2ccc(OC)cc12 (stereo partly specified) : call = ?
inactive

Entry CCCCC(C)(C)[C@H](O)C=C[C@H]1[C@H](O)CC(=O)[C@H]1CC=CCCCC(=O)O : call = ?
inactive

Entry c1ccc(-c2oc3ncnc(NC[C@@H]4CCCO4)c3c2-c2ccccc2)cc1 : call = ?
active

Entry CN(C)CCOc1cc(-c2cn[nH]c2)ccc1NC(=O)C1COc2ccccc2O1 (stereo unspecified) : call = ?
inactive

Entry CC(=O)NCCC(=O)N[C@@H](CCC(N)=O)C(=O)N[C@@H](CO)C(=O)N[C@@H](CCC(N)=O)C(=O)N[C@@H](CCC(N)=O)C(=O)N[C@H](C(=O)N[C@@H](Cc1ccccc1)C(=O)N[C@]1(C)CCCCCCC=CCCC[C@@](C)(C(=O)N[C@@H](CCC(N)=O)C(=O)N[C@@H](CC(N)=O)C(N)=O)NC(=O)[C@H](CC(C)C)NC(=O)[C@H](CC(C)C)NC(=O)[C@@H](CCCNC(=N)N)NC(=O)[C@H](Cc2c[nH]c3ccccc23)NC(=O)[C@H](CC(C)C)NC(=O)[C@H](CC(N)=O)NC1=O)[C@H](C)O : call = ?
inactive

Entry CC(C)C[C@@H](C(=O)N[C@H](C(=O)OC1CCCC1)c1ccccc1)[C@H](O)C(=O)NO : call = ?
active

Entry Cc1nc(C(=O)NCC(=O)O)c(O)c2ccc(Oc3ccccc3)cc12 : call = ?
inactive

Entry CN(C)c1nc(Cc2ccc(NC(=O)c3ccc(C(F)(F)F)cc3)cc2)nc(N(C)C)c1CC(=O)O : call = ?
inactive

Entry Cc1ccc(S(=O)(=O)OCC(=O)Nc2ccc(C(=O)O)c(O)c2)cc1 : call = ?
inactive

Entry CCCC1OC2C[C@@H]3[C@H]4CCC5=CC(=O)C=C[C@]5(C)[C@H]4C(O)C[C@]3(C)[C@]2(C(=O)CO)O1 (stereo partly specified) : call = ?
inactive

Entry CC(C)(F)C[C@H](N[C@@H](c1ccc(-c2ccc(S(C)(=O)=O)cc2)cc1)C(F)(F)F)C(=O)NC1(C#N)CC1 : call = ?
inactive
